- protocolSummary: Binding affinity to pre-mRNA (unknown origin)
measure: Kd

Look up Kd for this molecule: O=C1c2c(O)ccc(O)c2C(=O)c2c(NCCNCCO)ccc(NCCNCCO)c21
< 1000 nM

---

- protocolSummary: Binding affinity to r(AUUCA) repeat RNA (unknown origin) assessed as dissociation constant
measure: pKd
Hey, just a heads up that pKd is the negative log base 10 of the concentration in molar.

Look up pKd for this compound: N=C(N)c1ccc(-c2ccc(-c3ccc(C(=N)N)cc3)o2)cc1
6.77

---

- protocolSummary: Binding affinity to SARS-CoV-2 Attenuator hairpin RNA by MST assay
- Set-up: species or system Severe acute respiratory syndrome coronavirus 2
measure: pKd
Hey, just a heads up that pKd is the negative log base 10 of the concentration in molar.

Look up pKd for this molecule: CNc1nc(Nc2cccc(C(=O)O)c2)nc2ccccc12
7.96

---

- protocolSummary: Binding affinity to mouse MALAT1 assessed as dissociation constant
For each record, write down the corresponding pKd.
Hey, just a heads up that pKd is the negative log base 10 of the concentration in molar.

Look up pKd for this compound: COc1ccc(-c2cnc(NCc3cccc(OC)c3)n2C)cc1
5.54

Another compound to look at: N=C(N)c1ccc(-c2ccc(-c3ccc(C(=N)N)cc3)o2)cc1
6.25

---

- protocolSummary: Binding affinity to CAG repeat RNA (unknown origin) assessed as dissociation constant
measure: pKd
Hey, just a heads up that pKd is the negative log base 10 of the concentration in molar.

Look up pKd for this compound: N#Cc1c(N2CCCC2)nc(N)c2c(N)nc(N3CCCC3)cc12
5.85

---

For each record, write down the corresponding Kd.
- protocolSummary: Binding affinity to CUG repeat RNA (unknown origin) assessed as dissociation constant
Record the result as a number with its unit.

Look up Kd for this compound: NC(=O)CNC(=O)[C@H](Cc1ccc(Cl)cc1)NC(=O)c1ccc2nc(-c3ccccc3)[nH]c2c1
6300 nM

Another compound to look at: N#Cc1c(N2CCCC2)nc(N)c2c(N)nc(N3CCCC3)cc12
125 nM

Another compound to look at: CN1CCN(c2ccc3nc(-c4ccc5[nH]c(-c6cccc(OCCCC(=O)NCCCN=[N+]=[N-])c6)nc5c4)[nH]c3c2)CC1
150 nM

---

- protocolSummary: Binding affinity to HCV IRES
- Set-up: species or system Hepacivirus hominis
measure: Kd (nM)
Response body: numeric value in nM, unit text excluded.

Look up Kd for this compound: CN(C)c1nc(N)c(C(=O)NC(=N)N)nc1C#Cc1ccccc1
520

Another compound to look at: O=C(NCCN1CCCC1)c1ccc2oc(C(=O)c3cc(O)c(O)c(O)c3)cc2c1
360

Another compound to look at: CN(C)CC1COc2ccc3nc4n(c3c2C1)CC(CN(C)C)CN4 (stereo not drawn)
720

---

- studyTarget: Sulfhydryl oxidase 1 (Homo sapiens, UniProt O00391)
- Sequence (O00391 whole entry): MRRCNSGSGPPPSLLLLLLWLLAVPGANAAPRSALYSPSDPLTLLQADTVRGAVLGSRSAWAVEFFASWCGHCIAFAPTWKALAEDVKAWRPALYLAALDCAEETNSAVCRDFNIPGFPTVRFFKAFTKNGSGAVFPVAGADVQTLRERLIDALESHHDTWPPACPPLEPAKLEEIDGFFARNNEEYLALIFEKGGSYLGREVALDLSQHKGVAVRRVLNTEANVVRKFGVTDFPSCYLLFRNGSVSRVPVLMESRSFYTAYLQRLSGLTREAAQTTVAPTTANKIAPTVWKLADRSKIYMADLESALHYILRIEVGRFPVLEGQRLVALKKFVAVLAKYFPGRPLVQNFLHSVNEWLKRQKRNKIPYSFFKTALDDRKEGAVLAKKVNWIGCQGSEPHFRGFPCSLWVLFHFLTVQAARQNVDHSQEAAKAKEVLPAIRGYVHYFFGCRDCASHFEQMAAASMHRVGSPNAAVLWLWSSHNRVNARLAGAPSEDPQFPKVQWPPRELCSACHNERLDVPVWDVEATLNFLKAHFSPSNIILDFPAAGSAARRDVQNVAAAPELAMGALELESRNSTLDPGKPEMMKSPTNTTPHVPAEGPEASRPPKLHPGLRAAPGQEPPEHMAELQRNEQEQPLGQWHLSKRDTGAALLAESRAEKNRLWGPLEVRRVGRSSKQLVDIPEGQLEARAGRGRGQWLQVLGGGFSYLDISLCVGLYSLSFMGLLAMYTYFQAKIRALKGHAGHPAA
measure: Kd (µM)
Response body: numeric value in µM, unit text excluded.

Look up Kd for this compound: C#CCCC1(CCC(=O)N(C)[C@@H]2CC[C@H](c3ccc(Cl)c(Cl)c3)c3ccccc32)N=N1
16

---

- protocolSummary: Binding affinity to HIV-1 RNA assessed as dissociation constant
- Design: species or system Human immunodeficiency virus 1
measure: Kd (nM)
Response body: numeric value in nM, unit text excluded.

Look up Kd for this compound: CC(=O)c1c(C)c2cnc(Nc3ccc(N4CCNCC4)cn3)nc2n(C2CCCC2)c1=O [PALBOCICLIB]
104

---

- protocolSummary: Binding affinity to pre-miR-210 (unknown origin) assessed as dissociation constant
measure: pKd
Hey, just a heads up that pKd is the negative log base 10 of the concentration in molar.

Look up pKd for this compound: CN1CCN(c2ccc3nc(-c4ccc5[nH]c(-c6cccc(OCCCC(=O)NCCCN=[N+]=[N-])c6)nc5c4)[nH]c3c2)CC1
5.77

---

- protocolSummary: Binding affinity to pre-miR-27a (unknown origin) assessed as dissociation constant
measure: pKd
Hey, just a heads up that pKd is the negative log base 10 of the concentration in molar.

Look up pKd for this compound: C#CCN(CC(N)=O)C(=O)C[C@@H](Cc1c[nH]c2ccccc12)NC(=O)[C@H]1CC(NC(=O)Cn2c(=O)[nH]c3ccccc3c2=O)CN1 (some centres not stated)
7.05

Another compound to look at: Cc1ccc(C(=O)N2Cc3ccccc3C[C@H]2C(N)=O)cc1NCc1c(F)ccc(O)c1F
7.03
